target-desc: T1, Bzz1-2, P38822
T1 sequence (P38822 568-633, looked up): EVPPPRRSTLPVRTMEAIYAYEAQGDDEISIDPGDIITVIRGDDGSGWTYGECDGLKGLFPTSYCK
assay-remarks: SPOT array
protocol-conditions: median of control spots 4538
just bin them by SPOT intensity: low bracket: < 1; middle bracket: ≥ 1 and < 5; high bracket: ≥ 5

Some solved entries appear below for comparison.
- binder: "NENKKLPPAPTVFGL"
  classification: "low bracket"
- binder: "QQNRPLPQLPNRNNR"
  classification: "low bracket"
- binder: "NLDRSKISLPDFDDE"
  classification: "middle bracket"
- binder: "RRRDFGAPANKRPRR"
  classification: "high bracket"
- binder: "IFLRISINFPLNYPN"
  classification: "high bracket"
- binder: "VPKEPAPAPPPEPDM"
  classification: "low bracket"
- binder: "IPSRPAPKPPSSASA"
  classification: "low bracket"
- binder: "ATNVPVAPPPPPASL"
  classification: "middle bracket"
- binder: "PPLPRAPPVPPATFE"
  classification: "middle bracket"
- binder: "GRSRLFPHSPLGRSS"
  classification: "high bracket"

query: Note: place this binder into its band. Item: TKHKAPPPPPPTAET
result: high bracket

query: Note: place this binder into its band. Item: GKLKHIPRRPYEIER
result: middle bracket

query: Note: place this binder into its band. Item: MTKTPETSPPKRPMG
result: middle bracket
